TARGET UNDER TEST: T1, Recombinant Human DLL4 (delta-like protein 4) (human, UniProt Q9NR61 27-524)
T1 construct: Bought recombinant human DLL4 (R&D Systems Cat#1506-D4/CF); also called rHuman DLL4
ASSAY: ECL (MSD) multispot binding assay, antigen spotted on plate, Fab in solution;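 note: purified Fab incubated 1 h at 20 °C, detected via TAG-labelled antibody electrochemiluminescence, antigen spot compared with the blank in the same well, ratio at least 4 counted as hit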
RECORDED METRIC: ECL signal

* Fab VH1-46_IGHD6-6*01_IGHJ1*01 S102A/S103P/S104F/H111F (APFF) & L6_IGKJ1*01 S31Q (Fab, V domains shown, Fab made in E. coli; The constant parts (CH1 with His6 and Flag tags from plasmid A, kappa CL from plasmid C) are not added here; also called APFF & S31Q) VH: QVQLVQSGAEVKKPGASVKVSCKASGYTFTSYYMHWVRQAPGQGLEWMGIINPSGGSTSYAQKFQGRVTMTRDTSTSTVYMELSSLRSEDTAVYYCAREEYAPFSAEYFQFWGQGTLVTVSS VL: EIVLTQSPATLSLSPGERATLSCRASQSVSQYLAWYQQKPGQAPRLLIYDASNRATGIPARFSGSGSGTDFTLTISSLEPEDFAVYYCQQRSNWPPWTFGQGTKVEIKR | 165000

Measured values drawn from patent US20120316071A1 for this set.
